Catalogue of compounds with associated % degradation of peptides in 24 h when incubated with simulated gastric fluid
- PROTOCOL DESCRIPTION: Stability of peptides in simulated gastric fluid (pH 1.5; HCl, NaCl and Pepsin)
- Assay type: in vitro ADME
- EXPERIMENTAL PARAMETERS: simulated gastric fluid, 24 h, 2 μM, pH 1.5
Where a SMILES comes first, the peptide text is derived from it. [ ]: non-standard residue; d: D form. ξ: configuration not given here. ξαMePhe(2,6-F2) = CC(N)(Cc1c(F)cccc1F)C(=O)O; ξαMePhe(2-F) = CC(N)(Cc1ccccc1F)C(=O)O; hArg = N=C(N)NCCCC[C@H](N)C(=O)O; ξαMeF = CC(N)(Cc1ccccc1)C(=O)O; Nle = CCCC[C@H](N)C(=O)O; Orn = NCCC[C@H](N)C(=O)O; Ac5c = NC1(C(=O)O)CCCC1; Aib = CC(C)(N)C(=O)O
Write it as a number; the unit % goes unstated.

# COMPOUND, UNIT LABEL, NUMBER
data = [
    ("CCCC[C@H](NC(=O)[C@H](CC(C)C)NC(=O)[C@H](CCC(N)=O)NC(=O)[C@@H](NC(=O)[C@H](CCC(=O)O)NC(=O)C(C)(C)NC(=O)[C@@H](NC(=O)C(C)(C)N)C(C)C)[C@@H](C)CC)C(=O)N[C@@H](Cc1c[nH]cn1)C(=O)N[C@@H](CCC(N)=O)C(=O)N[C@@H](CCCCNC(=N)N)C(=O)NC(C)(C)C(=O)N[C@@H](CCCCN)C(=O)NC(C)(Cc1ccccc1)C(N)=O (some centres unmarked) [Seq. ID. 10] (H-[Aib]V[Aib]EIQL[Nle]HQ[hArg][Aib]K[ξαMeF]-NH2)", "%", 100),
]

Now consider the entry below.
Input: Return % degradation of peptides in 24 h when incubated with simulated gastric fluid (reported value) for this compound: CCCC[C@H](NC(=O)C(C)(Cc1ccccc1F)NC(=O)[C@H](CCC(N)=O)NC(=O)[C@@H](NC(=O)[C@H](CCC(=O)O)NC(=O)C(C)(C)NC(=O)[C@@H](NC(=O)C1(N)CCCC1)C(C)C)[C@@H](C)CC)C(=O)N[C@@H](Cc1c[nH]cn1)C(=O)N[C@@H](CCC(N)=O)C(=O)N[C@@H](CCCN)C(=O)N[C@@H](C)C(=O)NC(C)(Cc1c(F)cccc1F)C(=O)NC(C)(Cc1ccccc1F)C(N)=O (some centres unmarked) [Seq. ID. 315] (H-[Ac5c]V[Aib]EIQ[ξαMePhe(2-F)][Nle]HQ[Orn]A[ξαMePhe(2,6-F2)][ξαMePhe(2-F)]-NH2)
Output: 100

* * *

- PROTOCOL DESCRIPTION: Stability of peptides in simulated gastric fluid (pH 1.5; HCl, NaCl and Pepsin)
- Format: in vitro ADME
- EXPERIMENTAL PARAMETERS: simulated gi fluid, pH 1.5
Where a SMILES comes first, the peptide text is derived from it. [ ]: non-standard residue; d: D form. ξ: configuration not given here. ξBip(2'-Et-4'-OMe) = CCc1cc(OC)ccc1-c1ccc(CC(N)C(=O)O)cc1; hhPhe = N[C@@H](CCCc1ccccc1)C(=O)O; Nle = CCCC[C@H](N)C(=O)O; Orn = NCCC[C@H](N)C(=O)O; Aib = CC(C)(N)C(=O)O
ASSAY READOUT: half-life (h)
Write it as a number; the unit h goes unstated.

Input: Return half-life (reported value) for this compound: CCCC[C@H](NC(=O)[C@H](CC(C)C)NC(=O)[C@H](CCC(N)=O)NC(=O)[C@@H](NC(=O)[C@H](CCC(=O)O)NC(=O)C(C)(C)NC(=O)[C@@H](NC(=O)C(C)(C)N)C(C)C)[C@@H](C)CC)C(=O)N[C@@H](Cc1c[nH]cn1)C(=O)N[C@@H](CCC(N)=O)C(=O)N[C@@H](CCCN)C(=O)N[C@@H](C)C(=O)NC(C)(C)C(=O)NC(Cc1ccc(-c2ccc(OC)cc2CC)cc1)C(=O)N[C@@H](CCCc1ccccc1)C(N)=O (stereo partly shown) [Seq. ID. 750] (H-[Aib]V[Aib]EIQL[Nle]HQ[Orn]A[Aib][ξBip(2'-Et-4'-OMe)][hhPhe]-NH2)
Output: 4

* * *

- PROTOCOL DESCRIPTION: Stability of peptides in simulated intestinal fluid (pH 7.5)
- Type: in vitro ADME
- EXPERIMENTAL PARAMETERS: simulated gi fluid, pH 7.5
- Experimental: b) Stability of Peptides in Human Plasma, Simulated Gastric Fluid, Intestinal Fluid and Liver Microsomes (Ex-Vivo): Different short-chain peptides (final concentration 2 μM) were incubated with either pooled human plasma (7.5 μL) or simulated gastric fluid (pH 1.5; composition HCl, NaCl and Pepsin) or simulated intestinal fluid (pH 7.5) or human liver microsomes, for 0, 2, 4, 6, 12 and 24 h (37° C.; 50 mM triethanolamine-HCl buffer; pH 7.8). […]
Where a SMILES comes first, the peptide text is derived from it. [ ]: non-standard residue; d: D form. ξ: configuration not given here. ξαMePhe(2,6-F2) = CC(N)(Cc1c(F)cccc1F)C(=O)O; ξαMePhe(2-F) = CC(N)(Cc1ccccc1F)C(=O)O; hArg = N=C(N)NCCCC[C@H](N)C(=O)O; hCit = NC(=O)NCCCC[C@H](N)C(=O)O; Nle = CCCC[C@H](N)C(=O)O; Orn = NCCC[C@H](N)C(=O)O; ξαMeP = CC1(C(=O)O)CCCN1; Ac5c = NC1(C(=O)O)CCCC1; Aib = CC(C)(N)C(=O)O
ASSAY READOUT: half-life

The cases that follow already have their half-life on record.
# COMPOUND, half-life
records = [
    ("CCCC[C@H](NC(=O)C(C)(Cc1ccccc1F)NC(=O)[C@H](CCC(N)=O)NC(=O)[C@@H](NC(=O)[C@H](CCC(=O)O)NC(=O)C(C)(C)NC(=O)[C@@H](NC(=O)C(C)(C)N)C(C)C)[C@@H](C)CC)C(=O)N[C@@H](Cc1c[nH]cn1)C(=O)N[C@@H](CCC(N)=O)C(=O)N[C@@H](CCCCNC(=N)N)C(=O)NC(C)(C)C(=O)NC(C)(C)C(=O)NC(C)(Cc1c(F)cccc1F)C(N)=O (stereo partly shown) [Seq. ID. 182] (H-[Aib]V[Aib]EIQ[ξαMePhe(2-F)][Nle]HQ[hArg][Aib][Aib][ξαMePhe(2,6-F2)]-NH2)", "> 24 h"),
    ("CCCC[C@H](NC(=O)C(C)(Cc1c(F)cccc1F)NC(=O)[C@H](CCC(N)=O)NC(=O)[C@@H](NC(=O)[C@H](CCC(=O)O)NC(=O)C(C)(C)NC(=O)[C@@H](NC(=O)C(C)(C)N)C(C)C)[C@@H](C)CC)C(=O)N[C@@H](Cc1c[nH]cn1)C(=O)N[C@@H](CCC(N)=O)C(=O)N[C@@H](CCCCNC(N)=O)C(=O)NC(C)(C)C(=O)NC(C)(C)C(=O)NC(C)(Cc1ccccc1F)C(N)=O (stereo partly shown) [Seq. ID. 430] (H-[Aib]V[Aib]EIQ[ξαMePhe(2,6-F2)][Nle]HQ[hCit][Aib][Aib][ξαMePhe(2-F)]-NH2)", "> 24 h"),
    ("CCCC[C@H](NC(=O)C(C)(Cc1ccccc1F)NC(=O)[C@H](CCC(N)=O)NC(=O)[C@@H](NC(=O)[C@H](CCC(=O)O)NC(=O)C1(NC(=O)[C@@H](NC(=O)C(C)(C)N)C(C)C)CCCC1)[C@@H](C)CC)C(=O)N[C@@H](Cc1c[nH]cn1)C(=O)N[C@@H](CCC(N)=O)C(=O)N[C@@H](CCCCNC(=N)N)C(=O)N1CCCC1(C)C(=O)N[C@@H](CCCCN)C(=O)NC(C)(Cc1ccccc1F)C(N)=O (stereo partly shown) [Seq. ID. 62] (H-[Aib]V[Ac5c]EIQ[ξαMePhe(2-F)][Nle]HQ[hArg][ξαMeP]K[ξαMePhe(2-F)]-NH2)", "> 24 h"),
]

Now consider the entry below.
Input: Return half-life (reported value) for this compound: CCCC[C@H](NC(=O)C(C)(Cc1ccccc1F)NC(=O)[C@H](CCC(N)=O)NC(=O)[C@@H](NC(=O)[C@H](CCC(=O)O)NC(=O)C(C)(C)NC(=O)[C@@H](NC(=O)C1(N)CCCC1)C(C)C)[C@@H](C)CC)C(=O)N[C@@H](Cc1c[nH]cn1)C(=O)N[C@@H](CCC(N)=O)C(=O)N[C@@H](CCCN)C(=O)N[C@@H](C)C(=O)NC(C)(Cc1c(F)cccc1F)C(=O)NC(C)(Cc1ccccc1F)C(N)=O (stereo partly shown) [Seq. ID. 315] (H-[Ac5c]V[Aib]EIQ[ξαMePhe(2-F)][Nle]HQ[Orn]A[ξαMePhe(2,6-F2)][ξαMePhe(2-F)]-NH2)
Output: 0.5 h
